molecular target: recombinant human Tie-2 protein (Homo sapiens, UniProt Q02763); construct: purchased Thermo Fisher Scientific Inc. PV3628; assay: Z′-Lyte FRET enzymatic activity assay of Tie-2 kinase; type: biochemical; details: Z′-Lyte assay, 100 μM ATP, n ≥ 2 per concentration; read-out: IC50 (half-maximal inhibitory concentration), Tie-2 kinase
Sequence (Q02763 23-1124): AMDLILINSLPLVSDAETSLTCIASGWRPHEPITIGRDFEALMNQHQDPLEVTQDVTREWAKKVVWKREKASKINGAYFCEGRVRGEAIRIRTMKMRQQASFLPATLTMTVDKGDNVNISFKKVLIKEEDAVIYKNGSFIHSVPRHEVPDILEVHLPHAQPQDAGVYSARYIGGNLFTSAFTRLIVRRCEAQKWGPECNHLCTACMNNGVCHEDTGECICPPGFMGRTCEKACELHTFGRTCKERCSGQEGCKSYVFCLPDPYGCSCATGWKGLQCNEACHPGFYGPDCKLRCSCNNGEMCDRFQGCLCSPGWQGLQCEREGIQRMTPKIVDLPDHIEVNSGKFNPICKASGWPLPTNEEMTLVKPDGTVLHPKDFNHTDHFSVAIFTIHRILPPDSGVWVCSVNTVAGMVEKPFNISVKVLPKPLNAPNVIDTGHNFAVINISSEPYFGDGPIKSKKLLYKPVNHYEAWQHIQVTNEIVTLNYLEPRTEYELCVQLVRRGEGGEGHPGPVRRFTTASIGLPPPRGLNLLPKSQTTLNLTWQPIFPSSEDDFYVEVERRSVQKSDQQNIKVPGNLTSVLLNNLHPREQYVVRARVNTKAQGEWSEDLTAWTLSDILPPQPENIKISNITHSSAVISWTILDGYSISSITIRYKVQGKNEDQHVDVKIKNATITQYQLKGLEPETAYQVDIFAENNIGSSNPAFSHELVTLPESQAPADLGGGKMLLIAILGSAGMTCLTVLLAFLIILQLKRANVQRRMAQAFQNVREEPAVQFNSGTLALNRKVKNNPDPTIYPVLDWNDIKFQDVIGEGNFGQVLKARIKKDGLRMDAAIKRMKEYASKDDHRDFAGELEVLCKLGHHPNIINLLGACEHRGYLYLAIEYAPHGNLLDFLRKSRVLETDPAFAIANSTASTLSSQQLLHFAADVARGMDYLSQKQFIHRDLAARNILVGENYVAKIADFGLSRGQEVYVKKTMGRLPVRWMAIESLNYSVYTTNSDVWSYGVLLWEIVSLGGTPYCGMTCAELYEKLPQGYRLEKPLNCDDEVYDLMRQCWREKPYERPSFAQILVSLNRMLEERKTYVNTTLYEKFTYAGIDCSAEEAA
pIC50: −log10 of the molar value.
measuredQuantity: pIC50

- COC(=O)c1ccc(C)c(NC(=O)c2cc(-c3ccccn3)nc3ccc(Br)cc23)c1: 5.48

(P) Cc1cccc(C(=O)Nc2ccc(NC(=S)NC(=O)c3ccccc3)cc2)c1
(Q) Cc1c(C(=O)NC(=S)Nc2ccc(-c3nc4ccccc4s3)cc2)oc2ccccc12
In: Between P and Q , which one has the lower reported pIC50 value? Write the label of whichever entry you select.
Out: Q
(Q: 5.05, P: 5.55)

* * *

molecular target: recombinant human Tie-2 protein (Homo sapiens, UniProt Q02763); construct: purchased Thermo Fisher Scientific Inc. PV3628; assay: Z′-Lyte FRET enzymatic activity assay of Tie-2 kinase; assay type: biochemical; conditions: 10 μg/mL preliminary screening, Table S1
measuredQuantity: Inhibition (%) @10 μg/ml

* Cc1cc(S(=O)(=O)Nc2ccc(F)cc2)ccc1OCC(=O)NCc1cccnc1 | 77.43
* Cc1ccc2nc(-c3ccc(NC(=S)NC(=O)COc4ccccc4C)cc3)sc2c1 | 83.25
* Cc1cc(C(=O)c2ccccc2)ccc1OC(=O)CN1C(=O)c2ccccc2C1=O | -27.08
* COc1ccc2cc(-c3nc(-c4ccc([S+](C)[O-])cc4)[nH]c3-c3ccncc3)ccc2c1 (centres unmarked) [Tie-2 inhibitor, reference compound] | 95.2
* CCOc1ccc(NC(=O)C(C)Sc2nc3ccccc3c(=O)n2-c2cccc(C)c2)cc1 (racemic) | 3.87
* Cc1cc(NC(=S)NC(=O)c2ccccc2C)ccc1NC(=O)c1ccccc1 | 54.53

(I) Cl.O=C(O)c1ccc(Cl)c(-c2ccc(CNCC(O)c3ccccc3)o2)c1 (centres unmarked)
(II) CCc1ccc2oc(-c3ccc(NC(=S)NC(=O)c4cc5ccccc5o4)cc3)nc2c1
(III) CCOC(=O)c1ccc(NC(=O)CN2C(=O)c3ccccc3C2=O)cc1
(IV) COc1ccc(OC)c(Nc2nc(-c3cccc(NC(=O)c4ccccc4)c3)cs2)c1
In: Would you mind ranking these compounds by ascending Inhibition (%) @10 μg/ml? A ranking is expressed here by listing the labels in the requested order.
Out: II, I, III, IV

* * *

molecular target: recombinant human Tie-2 protein (Homo sapiens); construct: purchased Thermo Fisher Scientific Inc. PV3628; experiment: Z′-Lyte FRET enzymatic activity assay of Tie-2 kinase; format: biochemical; conditions: 10 μg/mL preliminary screening, Table S1
measuredQuantity: Inhibition (%) @10 μg/ml

• Cc1cc(NC(=S)NC(=O)c2ccc3c(c2)OCO3)ccc1NC(=O)c1ccccc1 = 81.26

(1) CC1(C)CC(=O)C(C(=S)Nc2ccccc2)=C(NCc2ccc3c(c2)OCO3)C1
(2) CCOc1cc(-c2nc3sc4c(c3c(=O)[nH]2)CCCC4)ccc1OCc1ccccc1F
(3) O=C(NCCc1cccc2ccccc12)C1CCCN1S(=O)(=O)c1ccc2ccccc2c1 (stereo not shown)
In: # rank_down: sort by Inhibition (%) @10 μg/ml, max first Provide the labels, sequenced as the question asks.
Out: 1, 3, 2
(1: 84.95%, 3: 39.83%, 2: 10.67%)
